The entries below come with measured TGI values attached.
Tested on: NCI-H23 lung
Test: NCI tumour cell line growth inhibition, 48 h

structure_string=Cc1ccc(S(=O)(=O)N2CCSCCSCCSCCSCC2)cc1 target_system="NCI-H23 lung" measured_result="> 92.6 µM"
structure_string=COc1ccc(N[C@H](CSc2ccc(C)cc2)c2ccc(F)cc2)cc1 target_system="NCI-H23 lung" measured_result="> 100 µM"

We next turn to a different molecule, shown below.
Ask: Recorded TGI for `Nc1ccn(Cc2ccc(C34CC5CC(CC(C5)C3)C4)c(O)c2)c(=O)n1` with NCI-H23 lung, please?
Result: > 100 µM

====

Tested on: HT29 colon
Experiment: NCI tumour cell line growth inhibition, 48 h
Listed below: TGI values for each entry.

Reference set (2 entries):
compound="CC(=O)NC(CCCNCc1ccccc1)C(=O)NCc1ccccc1 (stereo not drawn)" assay_endpoint=TGI measured_result="> 100 µM"
compound=CC(C)=C[C@@H]1C[C@H](n2cc(C)c(=O)[nH]c2=O)ON1CCO assay_endpoint=TGI measured_result="> 100 µM"

Ask: Given the entry `Cc1ccncc1.[O]=[Ge].[O]=[Ge].[O]=[Ge].[O]=[Ge].[O]=[Ge].[O]=[Ge][OH].[O]=[Ge][OH]` , report its measured TGI.
Result: > 100 µM

====

System: HCT-116 colon
Assay: NCI tumour cell line growth inhibition, 48 h
Documented TGI across a set of molecules
The reply should be a number in µM, with the unit left off.

Look over these answered cases.
molecule="C=CCC1([C@H](C)[C@@H](OC(C)=O)c2cc(OC)c(OC)c(OC)c2)C[C@@H](OC)CCC1=O (stereo not given in full)" assay_endpoint=TGI measurement_unit=µM measured_result=32.3
molecule=N#C/C(=C1\OC(=O)C(c2ccc(Br)cc2)=C1O)c1ccc(Br)cc1 assay_endpoint=TGI measurement_unit=µM measured_result=32.4
molecule=N#Cc1c(-c2ccccc2)/c(=C\Nc2ccc(Cl)cc2)c(=O)n2c1nc1ccccc12 assay_endpoint=TGI measurement_unit=µM measured_result=19.6
molecule=CCCCOc1ccc(NC(N)=Nc2ccc(Cl)cc2)cc1 assay_endpoint=TGI measurement_unit=µM measured_result=12.4

Ask: So what does the record say about TGI for CC(C)(C)C[C@H]1NC(C(=O)NCC[C@H](O)CO)[C@H](c2cccc(Cl)c2)[C@@]12C(=O)Nc1cc(Cl)c(F)cc12 (stereo not given in full) ?
Result: 16.3

Ask: Recorded TGI of `CC(C)=CCc1c2c(c3occ(-c4ccc(O)c(O)c4)c(=O)c3c1O)C=CC(C)(C)O2` , please.
Result: 4.29

Ask: Which TGI is listed for CCCCCn1c(=N)n(CC(O)COc2cccc(C)c2)c2ccccc21 (stereo not given) ?
Result: 17.7

Ask: So what does the record say about TGI for `COc1ccc(Nc2nc3ccc(C(F)(F)F)cc3nc2C(=O)O)cc1OC` ?
Result: 80

====

System: SK-MEL-28 melanoma
Experiment: NCI tumour cell line growth inhibition, 48 h; in the data active means GI50 below about 0.43 µM; inactive means the rest
Form entry, call: pick from active, inactive

The examples below pair each entry with its known result.
structure_string=ClCCn1c(CCl)nc2ccc(Cl)cc21 class_assignment=inactive
structure_string=CCCC[C@H](NC(=O)[C@H]1CCCN1C)C(=O)N(C)[C@H](C[C@@H](OC(C)=O)c1nc(C(=O)N[C@@H](Cc2ccccc2)C[C@H](C)C(=O)OCC)cs1)C(C)C class_assignment=active
structure_string=Nc1ccn(Cc2ccc(C34CC5CC(CC(C5)C3)C4)c(O)c2)c(=O)n1 class_assignment=inactive

We next turn to a different molecule, shown below.
Ask: Which outcome was assigned to `CCN(Cc1ccc(F)c(F)c1)c1ccc(CO)c(Cl)c1` in this test?
Result: inactive
